Target: Met (h) (Homo sapiens, UniProt P08581)
Construct: purchased Millipore
Sequence (P08581 25-1390): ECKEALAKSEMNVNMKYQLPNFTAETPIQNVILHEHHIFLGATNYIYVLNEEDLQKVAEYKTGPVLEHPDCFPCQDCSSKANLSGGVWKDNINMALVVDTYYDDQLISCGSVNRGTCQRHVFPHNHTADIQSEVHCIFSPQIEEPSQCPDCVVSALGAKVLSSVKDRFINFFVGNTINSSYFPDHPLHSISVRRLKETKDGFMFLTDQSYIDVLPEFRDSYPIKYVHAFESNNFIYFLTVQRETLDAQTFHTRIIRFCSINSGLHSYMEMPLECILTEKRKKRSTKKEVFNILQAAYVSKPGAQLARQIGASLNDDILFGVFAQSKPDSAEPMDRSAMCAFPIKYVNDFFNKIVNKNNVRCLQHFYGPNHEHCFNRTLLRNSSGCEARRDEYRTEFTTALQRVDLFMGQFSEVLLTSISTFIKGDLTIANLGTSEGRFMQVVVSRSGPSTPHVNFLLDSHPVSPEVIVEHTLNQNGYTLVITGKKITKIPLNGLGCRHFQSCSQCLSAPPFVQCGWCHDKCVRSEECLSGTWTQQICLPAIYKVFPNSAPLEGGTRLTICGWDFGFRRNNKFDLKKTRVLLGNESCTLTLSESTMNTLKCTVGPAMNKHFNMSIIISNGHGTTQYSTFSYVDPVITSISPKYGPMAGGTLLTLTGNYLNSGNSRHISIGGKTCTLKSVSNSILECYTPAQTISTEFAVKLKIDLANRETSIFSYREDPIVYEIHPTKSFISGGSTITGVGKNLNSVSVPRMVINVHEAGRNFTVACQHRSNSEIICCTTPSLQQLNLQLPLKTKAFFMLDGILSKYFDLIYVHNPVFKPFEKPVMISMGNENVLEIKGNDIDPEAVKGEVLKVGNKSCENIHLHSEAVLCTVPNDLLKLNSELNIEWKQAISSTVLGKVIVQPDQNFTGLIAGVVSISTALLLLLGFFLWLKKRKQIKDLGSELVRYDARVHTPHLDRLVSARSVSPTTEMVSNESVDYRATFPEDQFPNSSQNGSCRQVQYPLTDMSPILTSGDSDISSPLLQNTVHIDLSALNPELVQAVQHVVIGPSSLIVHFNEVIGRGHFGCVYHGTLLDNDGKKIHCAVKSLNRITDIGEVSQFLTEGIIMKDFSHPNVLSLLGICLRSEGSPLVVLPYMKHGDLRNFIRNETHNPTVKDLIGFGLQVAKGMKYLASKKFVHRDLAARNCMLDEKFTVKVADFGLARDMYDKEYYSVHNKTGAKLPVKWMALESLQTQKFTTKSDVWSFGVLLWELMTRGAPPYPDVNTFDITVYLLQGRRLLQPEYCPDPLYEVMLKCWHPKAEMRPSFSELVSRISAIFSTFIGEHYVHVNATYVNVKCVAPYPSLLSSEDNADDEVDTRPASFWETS
Assay: Met (h) kinase assay (33P-ATP filter assay, performed by Millipore)
Assay type: biochemical
Conditions: 0.2 μM test compound; remaining activity relative to DMSO control set to 100%; duplicate
Procedure: (specific activity approx. 500 cpm/pmol, concentration as required) and 0.2 μM test compound. The reaction is initiated by the addition of the MgATP mix. After incubation for 40 minutes at room temperature, the reaction is stopped by the addition of 3% phosphoric acid solution. […] The value for the control sample (DMSO) was set to 100%, and the values for the compound-treated samples were expressed as activity relative to the control sample.
Assay readout: Activity (control) % (%)
# number only, unit % dropped from output

Example results:
1. O=C(Nc1ccc(Oc2ccnc3c2CCN3)c(F)c1)c1cccn(-c2ccc(F)cc2)c1=O ... 11
2. Cc1c(C(=O)Nc2ccc(Oc3ccnc4c3CCN4)c(F)c2)c(=O)n(-c2ccccc2)n1C ... 51
3. O=C(Nc1ccc(Oc2ccnc3c2OCCCN3)cc1)c1c[nH]cc(-c2ccc(F)cc2)c1=O ... 2

Incoming: # return Activity (control) % for `Cc1c(C(=O)Nc2ccc(Oc3ccnc4c3OCCN4)c(F)c2)c(=O)n(-c2ccccc2)n1C` , test system: Met (h) (Homo sapiens, UniProt P08581)
Outgoing: 45

Incoming: # return Activity (control) % for `O=C(Nc1ccc(Oc2ccnc3c2OCCN3)cc1)c1cccn(-c2ccc(F)cc2)c1=O` , test system: Met (h) (Homo sapiens, UniProt P08581)
Outgoing: 6

Incoming: # return Activity (control) % for `O=C(Nc1ccc(Oc2ccnc3c2CCN3)c(F)c1)c1c[nH]cc(-c2ccc(F)cc2)c1=O` , test system: Met (h) (Homo sapiens, UniProt P08581)
Outgoing: 1

Incoming: # return Activity (control) % for `O=C(Nc1ccc(Oc2ccnc3c2OCCN3)c(F)c1)c1c[nH]cc(-c2ccc(F)cc2)c1=O` , test system: Met (h) (Homo sapiens, UniProt P08581)
Outgoing: 6

Incoming: # return Activity (control) % for `O=C(Nc1ccc(F)cc1)C1(C(=O)Nc2ccc(Oc3ccnc4c3CCN4)c(F)c2)CC1` , test system: Met (h) (Homo sapiens, UniProt P08581)
Outgoing: 15

---

system: NCI-H1993 cells; experiment: Cellular proliferation analysis (MTS assay), NCI-H1993; format: cell-based; conditions: Homo sapiens, 168 h; NCI-H1993 cells, 7 days, MTS; read-out: IC50 NCI-H1993
Each item that follows carries a reported IC50.
# number only, unit µM dropped from output

Incoming: Give IC50 for the following compound: `O=C(Nc1ccc(F)cc1)C1(C(=O)Nc2ccc(Oc3ccnc4c3CCN4)c(F)c2)CC1`
Outgoing: 9.2

Incoming: Give IC50 for the following compound: `O=C(Nc1ccc(Oc2ccnc3c2CCN3)c(F)c1)c1cccn(-c2ccc(F)cc2)c1=O`
Outgoing: 4.6

Incoming: Give IC50 for the following compound: `O=C(Nc1ccc(Oc2ccnc3c2OCCCN3)cc1)c1c[nH]cc(-c2ccc(F)cc2)c1=O`
Outgoing: 0.7

Incoming: Give IC50 for the following compound: `O=C(Nc1ccc(Oc2ccnc3c2OCCN3)cc1)c1cccn(-c2ccc(F)cc2)c1=O`
Outgoing: 7.9

---

system: SNU-5 cells; test: Cellular proliferation analysis (MTS assay), SNU-5; type: cell-based; details: Homo sapiens, SNU-5, 168 h, read-out: IC50 SNU5
Assay readout: pIC50
Interpret pIC50 as the negative base-10 log of the concentration measured in mol/L.

Incoming: Give pIC50 for the following compound: `O=C(Nc1ccc(Oc2ccnc3c2CCN3)c(F)c1)c1c[nH]cc(-c2ccc(F)cc2)c1=O`
Outgoing: 6.05

Incoming: Give pIC50 for the following compound: `O=C(Nc1ccc(Oc2ccnc3c2OCCN3)c(F)c1)c1c[nH]cc(-c2ccc(F)cc2)c1=O`
Outgoing: 5.51

---

Each item that follows carries a reported pIC50.
tested on: A549 cells; test: Cellular proliferation analysis (MTS assay), A549; format: cell-based; details: Homo sapiens, A549, 168 h, read-out: IC50 A549
Interpret pIC50 as the negative base-10 log of the concentration measured in mol/L.

1. O=C(Nc1ccc(Oc2ccnc3c2CCN3)c(F)c1)c1c[nH]cc(-c2ccc(F)cc2)c1=O ... 4.81

Switching to the query record.
Incoming: Give pIC50 for the following compound: `O=C(Nc1ccc(Oc2ccnc3c2OCCN3)c(F)c1)c1c[nH]cc(-c2ccc(F)cc2)c1=O`
Outgoing: 4.70

---

Each item that follows carries a reported IC50.
test system: EBC-1 cells; assay: Cellular proliferation analysis (MTS assay), EBC-1; type: cell-based; details: Homo sapiens, EBC-1, 168 h, read-out: IC50 EBC-1
# number only, unit nM dropped from output

1) O=C(Nc1ccc(Oc2ccnc3c2CCN3)c(F)c1)c1c[nH]cc(-c2ccc(F)cc2)c1=O ... 60

Incoming: Give IC50 for the following compound: `O=C(Nc1ccc(Oc2ccnc3c2OCCN3)c(F)c1)c1c[nH]cc(-c2ccc(F)cc2)c1=O`
Outgoing: 400
